# condition notes: buffer; pH 7.4; 200.0 µM
Classify by measured solubility kinetic: y if it is equal to or exceeds 10 µg/mL, n if it is smaller.

Worked cases, answers included:
Cn1c(-c2cccc(Br)c2)cnc1NCc1ccccc1O : n
CCc1ccc(/C=C2\SC(N3CCCC3)=NC2=O)cc1 : y
Cc1cccc(NC(=O)c2cccc(N3C(=O)CCC3=O)c2)c1 : y

Problem: Assess whether reported solubility kinetic for CCc1ccc(NC(=O)C(C)OC(=O)/C=C/c2ccc(O)c(OC)c2)cc1 (stereo unspecified) sits at 10 µg/mL or higher.
Result: n

Problem: Assess whether reported solubility kinetic for Cc1nn(C)c(Cl)c1/C=N/OC(=O)c1ccccc1 sits at 10 µg/mL or higher.
Result: y

Problem: Assess whether reported solubility kinetic for COc1cccc(NC(=O)c2ccccc2Oc2ccccc2)c1 sits at 10 µg/mL or higher.
Result: n

Problem: Assess whether reported solubility kinetic for Cc1nc2c(cnn2-c2ccccc2)c(=O)[nH]1 sits at 10 µg/mL or higher.
Result: y

Problem: Assess whether reported solubility kinetic for Cc1ccc(-c2nc(=S)c3c(n2Cc2cccnc2)CC(C)(C)OC3)cc1 sits at 10 µg/mL or higher.
Result: y

Problem: Assess whether reported solubility kinetic for COC(=O)C1=C(Nc2ccccc2NC(=O)c2ccccc2C(=O)O)CSC1 sits at 10 µg/mL or higher.
Result: y

Problem: Assess whether reported solubility kinetic for CN(CC(=O)Nc1cccc([N+](=O)[O-])c1)S(=O)(=O)c1ccccc1 sits at 10 µg/mL or higher.
Result: y

Problem: Assess whether reported solubility kinetic for CC(=O)N(CCN(C)C)c1nc2cc3c(cc2s1)OCCO3.Cl sits at 10 µg/mL or higher.
Result: y

###

# condition notes: buffer; pH 7.4; 200.0 µM
Classify by measured solubility kinetic: Condition met if it is equal to or exceeds 8 µg/mL, Condition not met if it is smaller.

Worked cases, answers included:
Nc1ccc2c(c1)Oc1ccccc1C=C2 : Condition met
COc1nc2ccccc2nc1N1CCN(C)CC1 : Condition met
Cc1ccn2cc(CCNC(=O)C3CC=CCC3C(=O)O)nc2c1 (centres undefined) : Condition met
CCCCOc1ccc(CN=C(N)N)cc1Cl : Condition met

Problem: Assess whether reported solubility kinetic for Clc1cccc(-c2nc(NCC3CCCO3)c3ccccc3n2)c1 (centres undefined) sits at 8 µg/mL or higher.
Result: Condition not met

Problem: Assess whether reported solubility kinetic for Cl.O=S(=O)(NCCN1CCN(S(=O)(=O)c2ccccc2F)CC1)c1ccccc1F sits at 8 µg/mL or higher.
Result: Condition met

Problem: Assess whether reported solubility kinetic for COc1ccc(C(=O)NCCCNC(=O)c2cc3ccccc3[nH]2)cc1OC sits at 8 µg/mL or higher.
Result: Condition met

Problem: Assess whether reported solubility kinetic for Fc1cccc(Nc2ncnc3sccc23)c1 sits at 8 µg/mL or higher.
Result: Condition not met

Problem: Assess whether reported solubility kinetic for NS(=O)(=O)c1ccc(CCNC(=S)NC2CCCCC2)cc1 sits at 8 µg/mL or higher.
Result: Condition met

Problem: Assess whether reported solubility kinetic for Cc1ccc2c(Cl)cc(Cl)c(OCC(=O)O)c2n1 sits at 8 µg/mL or higher.
Result: Condition met

Problem: Assess whether reported solubility kinetic for COc1ccc(NC(=O)c2cc(C)no2)cc1Cl sits at 8 µg/mL or higher.
Result: Condition not met

Problem: Assess whether reported solubility kinetic for CCCc1cc(C(=O)Nc2cccc([N+](=O)[O-])c2)cs1 sits at 8 µg/mL or higher.
Result: Condition not met

Problem: Assess whether reported solubility kinetic for O=C(CNC(=O)c1ccccc1F)NCCc1ccc(Cl)cc1 sits at 8 µg/mL or higher.
Result: Condition met

Problem: Assess whether reported solubility kinetic for CC(NC(=O)COC(=O)C1CC2CCCC(C1)C2=O)c1ccccc1 (centres undefined) sits at 8 µg/mL or higher.
Result: Condition met

Problem: Assess whether reported solubility kinetic for CCOC(=O)Nc1ccc2c(COC(=O)C(NS(=O)(=O)c3ccc(Cl)cc3)C(C)O)cc(=O)oc2c1 (centres undefined) sits at 8 µg/mL or higher.
Result: Condition met

###

# condition notes: buffer; pH 7.4; 200.0 µM
Classify by measured solubility kinetic: Yes if it is equal to or exceeds 40 µg/mL, No if it is smaller.

Worked cases, answers included:
COCCCNC(=O)c1cn(C)c(=O)c2c1c1ccccc1n2C : No
CCN(CC(=O)NCc1cccs1)C(=O)c1ccc(-c2ccc(F)cc2)o1 : Yes

Problem: Assess whether reported solubility kinetic for CC(C)=C1SC(N2CCN(c3ccc(C)c(Cl)c3)CC2)=NC1=O sits at 40 µg/mL or higher.
Result: No

Problem: Assess whether reported solubility kinetic for N/C(Cc1ccc([N+](=O)[O-])cc1)=N\OC(=O)c1ccco1 sits at 40 µg/mL or higher.
Result: No

Problem: Assess whether reported solubility kinetic for Cc1occc1C(=O)N1CCCC(Nc2ccc(F)c(F)c2)C1 (stereo not given) sits at 40 µg/mL or higher.
Result: Yes

Problem: Assess whether reported solubility kinetic for CC(CN1CCOCC1)OC(=O)Cc1ccccc1.Cl (stereo not given) sits at 40 µg/mL or higher.
Result: No

Problem: Assess whether reported solubility kinetic for COc1ccc(C)cc1N(CC(=O)N1CCOCC1)S(C)(=O)=O sits at 40 µg/mL or higher.
Result: Yes

Problem: Assess whether reported solubility kinetic for COc1ccc2nc(NC(=O)C34CC5CC(CC(NC(C)=O)(C5)C3)C4)sc2c1 sits at 40 µg/mL or higher.
Result: Yes

Problem: Assess whether reported solubility kinetic for COc1c(C)cc(S(=O)(=O)N2CCOCC2)c(C)c1C sits at 40 µg/mL or higher.
Result: Yes

Problem: Assess whether reported solubility kinetic for NC(=O)c1cc(S(=O)(=O)Nc2cccc(Cl)c2)cs1 sits at 40 µg/mL or higher.
Result: Yes

###

# condition notes: buffer; pH 7.4; 200.0 µM
The compounds listed here are annotated with their solubility kinetic.
State the answer as a number, implicitly in µg/mL.

O=C(NC(=S)Nc1ccccc1F)C1CCCCC1 : 3
CC(C)Oc1ccc(Cc2cnc(=S)[nH]c2N)cc1 : 15.4
O=C(CCNC(=O)c1ccco1)Nc1ccc(OC(F)(F)F)cc1 : 19.7
CC(=O)c1c(C)[nH]c(C(=O)COC(=O)c2cccs2)c1C : 6.9

Next item in the queue.
# solubility kinetic (compound: Cc1cc(C(=O)Nc2cccc([N+](=O)[O-])c2C)cs1 ) is 13.6

###

The compounds listed here are annotated with their solubility kinetic.
# condition notes: buffer; pH 7.4; 200.0 µM
State the answer as a number, implicitly in mg/mL.

COC(=O)Nc1nc2ccc(Sc3ccccc3)cc2[nH]1 : 0.0009
CCOC(=O)N1CCN(C(c2cccnc2)c2ccc3cccnc3c2O)CC1 (stereo not drawn) : 0.028
NC(=NCCc1ccc(Cl)cc1)NS(=O)(=O)c1ccccc1 : 0.0475

Next item in the queue.
# solubility kinetic (compound: CCOc1ccc(NC(=S)Nc2ccc(F)cc2)cc1 ) is 0.0083

###

# condition notes: buffer; pH 7.4; 200.0 µM
endpoint name: solubility kinetic (µg/mL)
State the answer as a number, implicitly in µg/mL.

# solubility kinetic (compound: O=C(CCc1ccccc1)N1CCCC(Nc2ccc(F)cc2)C1 (stereo unspecified) ) is 41.4

###

The molecules listed here are annotated with their solubility kinetic.
# condition notes: buffer; pH 7.4; 200.0 µM
State the answer as a number, implicitly in µg/mL.

Consider the reported solubility kinetic for these molecules:
COC(=O)c1sc(N(C)C)c(C#N)c1-c1ccccc1 : 1.8
O=C(c1ccc([N+](=O)[O-])cc1)c1cc2ccc(O)cc2oc1=O : 2
COc1ccc(OC)c(CNC(=O)CCc2cn(C)c3ccccc23)c1 : 12.7

# solubility kinetic (molecule: O=C(Nc1ccc(Nc2ccccc2)cc1)c1cccc(F)c1 ) is 0.8

# solubility kinetic (molecule: COc1ccccc1CNC(=O)C(Cc1ccccc1)NC(=O)c1ccccc1 (stereo not drawn) ) is 12.8

# solubility kinetic (molecule: CNC(=S)N(CCc1c(C)[nH]c2ccccc12)Cc1ccco1 ) is 1.5

# solubility kinetic (molecule: O=C(CN1C(=O)NC2(CCCCCC2)C1=O)NCc1ccc(Cl)cc1 ) is 23.5

# solubility kinetic (molecule: Cc1ccc(C)c(S(=O)(=O)c2c(C)cc(C)nc2Cl)c1 ) is 27

###

# condition notes: buffer; pH 7.4; 200.0 µM
Classify by measured solubility kinetic: 1 if it is equal to or exceeds 30 µg/mL, 0 if it is smaller.

Worked cases, answers included:
O=C(CCC(=O)NC1CCCCC1)NCc1ccc(F)cc1 : 1
c1ccc(Cn2c(NCc3ccncc3)nc3ccccc32)cc1 : 1
CC(C)CCOc1ccc(C2(C)NC(=O)NC2=O)cc1 (configuration not stated) : 1

Problem: Assess whether reported solubility kinetic for COc1cccc(OCCNS(=O)(=O)c2ccccc2[N+](=O)[O-])c1 sits at 30 µg/mL or higher.
Result: 1

Problem: Assess whether reported solubility kinetic for COc1cc(C(=O)OCc2cc(=O)n3ccsc3n2)ccc1OC(C)C sits at 30 µg/mL or higher.
Result: 0

Problem: Assess whether reported solubility kinetic for CCN(C(=O)COC(=O)c1cc(OC)ccc1Br)C1CCS(=O)(=O)C1 (configuration not stated) sits at 30 µg/mL or higher.
Result: 1

Problem: Assess whether reported solubility kinetic for C=CCN1C(=O)c2ccccc2C1(O)Cc1ccccc1 (configuration not stated) sits at 30 µg/mL or higher.
Result: 1

Problem: Assess whether reported solubility kinetic for O=S(=O)(c1ccc(F)cc1)N1CN2CCN(C2)C1 sits at 30 µg/mL or higher.
Result: 1

Problem: Assess whether reported solubility kinetic for Cc1ccccc1CNCc1ccc2c(c1)OCO2.O=C(O)C(=O)O sits at 30 µg/mL or higher.
Result: 1

Problem: Assess whether reported solubility kinetic for Cc1ccccc1CN(C)C1CCN(C)CC1 sits at 30 µg/mL or higher.
Result: 1

Problem: Assess whether reported solubility kinetic for Cc1ccc(S(=O)(=O)/N=C(\N)c2ccc(F)cc2)cc1 sits at 30 µg/mL or higher.
Result: 1

Problem: Assess whether reported solubility kinetic for Cc1ccc2c(c1)c1ncn(Cc3ccc(F)cc3)c(=O)c1n2C sits at 30 µg/mL or higher.
Result: 0

Cited source for all entries: PubChem BioAssay AID1996
